Values compiled from patent US20260297085A1.

molecular target: human JAK3 kinase domain (JH1) (Homo sapiens); construct: recombinantly generated catalytic kinase (also known as JH1) domain of human JAK1, JAK2, JAK3 and TYK2; assay: JH1 biochemical assay for JAK3 (ADP-Glo kinase assay, recombinant JH1 catalytic domain, JAK3-974 peptide, 4 μM ATP); conditions: JAK3 JH1, ADP-Glo
Sequence (P52333 822-1111 limits assumed): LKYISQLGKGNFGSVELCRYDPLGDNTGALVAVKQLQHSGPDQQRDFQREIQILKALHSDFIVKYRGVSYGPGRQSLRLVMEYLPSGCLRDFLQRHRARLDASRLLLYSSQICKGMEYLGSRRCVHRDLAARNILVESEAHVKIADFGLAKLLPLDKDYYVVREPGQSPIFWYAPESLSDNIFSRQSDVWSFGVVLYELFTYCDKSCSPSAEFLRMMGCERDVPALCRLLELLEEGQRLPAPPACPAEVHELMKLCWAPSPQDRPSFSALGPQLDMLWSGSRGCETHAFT
Structures can show the parent of a compound that is named as a salt.
The molecules listed here are annotated with their IC50.

Identify measured IC50 associated with Cc1cc(-n2nc(N3C[C@@H](C)[C@@](C#N)(C4CC4)C3=O)c3ccncc32)ccn1 [Example 281]
0.1 to 1 µM

Identify measured IC50 associated with C[C@@H]1CN(c2nc(-c3cnn(C4CC(C#N)C4)c3)cc3ncsc23)C(=O)[C@]1(C#N)C1CC1 (some centres unmarked) [Example 356]
< 0.1 µM

Identify measured IC50 associated with CO[C@H]1C[C@H](n2cc(-c3cn4ncc(F)c4c(N4C[C@@H](C)[C@@](C#N)(C5CC5)C4=O)n3)cn2)C1 [Example 299]
< 0.1 µM

Identify measured IC50 associated with C[C@@H]1CN(c2nc(-c3ccc(S(C)(=O)=O)nc3)cn3nccc23)C(=O)[C@]1(C#N)C1CC1 [Example 257, trifluoroacetate]
0.1 to 1 µM

Identify measured IC50 associated with Cc1ncc(-c2cn3nccc3c(N3C[C@@H](C)[C@@](C#N)(C4CC4)C3=O)n2)s1 [Example 239]
< 0.1 µM

###

The molecules listed here are annotated with their pIC50.
target: Tyk2 kinase activity on STAT4 in NK92 cells (Homo sapiens); assay: pSTAT4 cell assay (MSD; NK92 cells, 30 ng/mL IL2 stimulation); details: 30 ng/mL IL2, 15 minutes
Sequence (P29597 whole entry): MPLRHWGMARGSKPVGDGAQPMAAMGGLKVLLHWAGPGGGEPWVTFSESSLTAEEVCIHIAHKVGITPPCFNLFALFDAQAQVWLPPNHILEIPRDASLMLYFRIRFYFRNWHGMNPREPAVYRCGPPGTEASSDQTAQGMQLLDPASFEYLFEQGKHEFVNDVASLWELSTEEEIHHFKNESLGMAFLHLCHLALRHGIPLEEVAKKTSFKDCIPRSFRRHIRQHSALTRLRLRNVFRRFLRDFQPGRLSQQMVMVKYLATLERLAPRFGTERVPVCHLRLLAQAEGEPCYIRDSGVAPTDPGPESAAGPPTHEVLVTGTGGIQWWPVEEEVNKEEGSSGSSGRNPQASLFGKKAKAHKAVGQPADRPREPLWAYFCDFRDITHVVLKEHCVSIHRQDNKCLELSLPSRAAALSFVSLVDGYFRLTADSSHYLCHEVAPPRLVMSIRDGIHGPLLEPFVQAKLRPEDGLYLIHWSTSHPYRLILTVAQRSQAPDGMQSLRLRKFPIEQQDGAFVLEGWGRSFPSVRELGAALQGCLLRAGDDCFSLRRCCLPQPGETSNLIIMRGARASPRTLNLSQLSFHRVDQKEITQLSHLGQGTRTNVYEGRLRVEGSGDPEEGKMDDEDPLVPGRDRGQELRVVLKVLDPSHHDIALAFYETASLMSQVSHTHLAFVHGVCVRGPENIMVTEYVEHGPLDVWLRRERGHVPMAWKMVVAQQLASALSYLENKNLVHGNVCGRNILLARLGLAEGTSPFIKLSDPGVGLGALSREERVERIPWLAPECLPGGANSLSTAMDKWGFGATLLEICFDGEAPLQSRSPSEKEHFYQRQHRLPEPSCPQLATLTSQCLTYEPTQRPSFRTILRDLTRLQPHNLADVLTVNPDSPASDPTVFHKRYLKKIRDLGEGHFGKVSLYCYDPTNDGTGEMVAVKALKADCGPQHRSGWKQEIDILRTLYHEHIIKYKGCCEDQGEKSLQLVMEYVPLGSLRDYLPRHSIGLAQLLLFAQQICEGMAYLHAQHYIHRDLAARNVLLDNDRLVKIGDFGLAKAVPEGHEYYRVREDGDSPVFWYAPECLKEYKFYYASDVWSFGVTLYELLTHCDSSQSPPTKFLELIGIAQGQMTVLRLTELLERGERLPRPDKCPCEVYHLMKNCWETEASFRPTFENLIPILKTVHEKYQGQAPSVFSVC
pIC50: −log10 of the molar value. Counter-ions that a name gives are not always drawn.

Worked examples, 3 molecules total:
Molecule	pIC50
C[C@@H]1CN(c2nc(-c3cnn(CC4(C)COC4)c3)cn3ncc(F)c23)C(=O)[C@]1(C#N)C1CC1	7.00 to 7.30
C[C@@H]1CN(c2ccnn3cc(-c4cnn(C5COC5)c4)cc23)C(=O)[C@]1(C#N)C1CC1	7.30 to 7.70
C[C@@H]1CN(c2nc(-c3ccc(O)nc3)cn3nccc23)C(=O)[C@]1(C#N)C1CC1 [Example 267, trifluoroacetate]	7.00 to 7.30

With those in mind, consider the next molecule.
Identify measured pIC50 associated with `C[C@@H]1CN(c2ccnn3cc(-c4cnn(CC5(C)COC5)c4)cc23)C(=O)[C@]1(C#N)C1CC1`
7.30 to 7.70

###

The compounds listed here are annotated with their pIC50.
target: human JAK2 kinase domain (JH1) (Homo sapiens, UniProt O60674); construct: recombinantly generated catalytic kinase (also known as JH1) domain of human JAK1, JAK2, JAK3 and TYK2; experiment: JH1 biochemical assay for JAK2 (ADP-Glo kinase assay, recombinant JH1 catalytic domain, JAK3-974 peptide, 15 μM ATP); conditions: JH1 kinase domain, ADP-Glo
Sequence (O60674 849-1124 limits assumed): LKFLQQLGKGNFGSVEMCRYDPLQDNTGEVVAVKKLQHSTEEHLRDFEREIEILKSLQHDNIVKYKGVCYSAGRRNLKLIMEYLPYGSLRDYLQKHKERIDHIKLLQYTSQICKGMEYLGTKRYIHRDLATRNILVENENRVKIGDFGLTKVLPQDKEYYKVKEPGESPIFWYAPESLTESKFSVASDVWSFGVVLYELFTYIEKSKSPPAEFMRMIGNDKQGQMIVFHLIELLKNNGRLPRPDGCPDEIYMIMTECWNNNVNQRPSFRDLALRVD
pIC50: −log10 of the molar value. Counter-ions that a name gives are not always drawn.

Compound	Observed value
CC[C@@H]1C[C@@](C#N)(C2CC2)C(=O)N1c1ccnn2cc(-c3cnn(C)c3)cc12 [Example 18]	6.00 to 7.00
CC[C@]1(C#N)CCN(c2ccnn3cc(-c4cnn(C)c4)cc23)C1=O (single isomer, unassigned) [Example 42]	5.30 to 6.00

Identify measured pIC50 associated with Cc1cc(-c2cc3c(N4C[C@@H](C)[C@@](C#N)(C5CC5)C4=O)ccnn3c2)ncc1F [Example 142, trifluoroacetate]
5.30 to 6.00

Identify measured pIC50 associated with COc1cc(-c2cc3c(N4CC[C@@](C#N)(C5CC5)C4=O)ccnn3c2)ccn1 [Example 8]
6.00 to 7.00

Identify measured pIC50 associated with Cc1ccc(-c2cc3c(N4C[C@@H](C)[C@@](C#N)(C5CC5)C4=O)ccnn3c2)cn1 [Example 67]
6.00 to 7.00

Identify measured pIC50 associated with C[C@@H]1CN(c2ccnn3cc(-c4ccc5c(cnn5C)c4)cc23)C(=O)[C@]1(C#N)C1CC1 [Example 55]
6.00 to 7.00

Identify measured pIC50 associated with CC[C@H]1C[C@](C#N)(C2CC2)C(=O)N1c1ccnn2cc(-c3cnn(C)c3)cc12 [Example 32]
< 5.00
